B1: EHEE_rd3_0053 (parent)
chain: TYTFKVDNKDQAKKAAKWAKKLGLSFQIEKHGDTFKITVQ

# Variants of: B1
# PROTOCOL: folding stability dG (cDNA display proteolysis); higher = more stable
# RUN_PARAMETERS: PBS, room temperature
PARAMETER_MEASURED: folding stability dG (kcal/mol)
Dear colleague, please return just the value in kcal/mol, with no unit written.

Example variants with recorded folding stability dG:
Q27K
2.64
Q27D
1.9
A12C
3.23

// next item, folding stability dG requested
Measured folding stability dG, `I37V` : 2.35
